- Test system: RXF 393 renal
- ASSAY_METHOD_TEXT: NCI tumour cell line growth inhibition, 48 h; in the data active = GI50 below about 0.43 µM; inactive = the rest
I would appreciate it if you answered using one of these outcomes: yes for active, no for inactive

Challenge: What is the recorded call for this molecule in the test? Nc1nc(N)c2cc(CNc3ccc(C(=O)NC(CC(=O)O)C(=O)O)cc3)ccc2n1 (stereo not drawn)
Response given: no

Challenge: What is the recorded call for this molecule in the test? `CN1CCN(CCn2c3c4ccccc4ccc3c3oc(=O)c4ccccc4c32)CC1`
Response given: no

Challenge: What is the recorded call for this molecule in the test? `FC(F)(F)c1ccc(-c2cncn2-c2ccccc2)cc1`
Response given: no

Challenge: What is the recorded call for this molecule in the test? `CCOC(=O)/C=C/C1=C(c2csc3ccccc23)c2ccccc2CC1`
Response given: no

Challenge: What is the recorded call for this molecule in the test? `CCCCCCNC(=O)Nc1ccc2cc3ccc(NC(=O)NCCCCCC)cc3nc2c1`
Response given: no

Challenge: What is the recorded call for this molecule in the test? C[C@]12CCC3c4ccc(O)cc4CCC3C1CC[C@@]2(O)C#Cc1ccc(C#C/C=C\C#Cc2ccccc2N)cc1 (stereo partly drawn)
Response given: no

Challenge: What is the recorded call for this molecule in the test? `CC(C)[C@]12O[C@H]1[C@@H]1O[C@]13[C@]1(O[C@H]1C[C@H]1C4=C(CC[C@@]13C)C(=O)OC4)[C@@H]2OC(=O)CN(C)C`
Response given: yes

Challenge: What is the recorded call for this molecule in the test? O=C1OCC2=C1C(c1cccc(Cl)c1)c1cc3c(cc1N2CCO)OCO3 (stereo not drawn)
Response given: yes

Challenge: What is the recorded call for this molecule in the test? `FC(F)(F)c1cccc(Nc2nc3ccccc3nc2Nc2cccc(C(F)(F)F)c2)c1`
Response given: no

Challenge: What is the recorded call for this molecule in the test? COc1ccc(/C=N/C2=C(C#N)C(c3ccccc3)c3c(ccc4ccccc34)O2)cc1 (stereo not drawn)
Response given: no

Challenge: What is the recorded call for this molecule in the test? `O=C(N/N=C\c1c(O)ccc2ccccc12)C1CC1`
Response given: no

Challenge: What is the recorded call for this molecule in the test? `COC(=O)C1=C(O)[C@H](C(=O)OC)C2(O)[C@@H](C(=O)OC)[C@H]1C[C@@H](c1ccc(OC(=O)n3ccnc3)cc1)[C@@H]2C(=O)OC`
Response given: no

Challenge: What is the recorded call for this molecule in the test? `O=C(Nc1cccc(-c2cccc(F)c2)c1)C1CCN(Cc2cccc3cccnc23)CC1`
Response given: no

Challenge: What is the recorded call for this molecule in the test? `O[N+]1=CC=CCC1=S.On1ccccc1=S.[Zn]`
Response given: no

Challenge: What is the recorded call for this molecule in the test? `CN1CCN(c2ccc3nc(-c4c5cccccc-5[nH]c4=O)[nH]c3c2)CC1`
Response given: no

Challenge: What is the recorded call for this molecule in the test? `CC1(C)C(=O)/C(=C\c2ccccn2)C[C@]2(C)[C@H]3CC[C@@H]4[C@@H](C(=O)/C=C/c5ccccn5)CC[C@@]4(C)[C@]3(C)CC[C@@H]12`
Response given: no

Challenge: What is the recorded call for this molecule in the test? `NC(=O)c1cccc(N2Cc3ccccc3OC3=C2C(=O)c2c(O)ccc(O)c2C3=O)c1`
Response given: yes

Challenge: What is the recorded call for this molecule in the test? `C1CN1c1nc(N2CC2)nc(N2CC2)n1`
Response given: no

// data source = PubChem BioAssay (NCI)
